# Species on record: Rattus norvegicus
# assay: DrugMatrix - Regimen: Daily Repeat
# Type: toxicity, organism-based, Sprague-Dawley
# Parameters: regimen Daily Repeat, gender Male, age 6-8 weeks
# protocol conditions: in vivo, po, 120 mg/kg, 72 h, tissue Blood, route oral GAVAGE, dose level High, time 3 day, vehicle 100 % WATER

[
  {
    "structure": "c1ccc([C@H]2CN3CCSC3=N2)cc1",
    "ABSOLUTE MONOCYTE, CELLS/uL": 85
  }
]

* * *

# Species: Rattus norvegicus
# assay: DrugMatrix - Regimen: Daily Repeat
# Assay type: toxicity, organism-based, Sprague-Dawley
# Design: regimen Daily Repeat, gender Male, age 6-8 weeks
# protocol conditions: in vivo, ip, 0 mg/kg, 120 h, tissue Blood, route intraperitoneal, dose level Control, time 5 day, vehicle 100 % SALINE
observed property: ABSOLUTE MONOCYTE (cells/µL)

[
  {
    "substance": "LEAD (II) ACETATE",
    "assay value": 140
  }
]

* * *

# Organism: Rattus norvegicus
# assay: DrugMatrix - Regimen: Daily Repeat
# Assay type: toxicity, organism-based, Sprague-Dawley
# Design: regimen Daily Repeat, gender Male, age 6-8 weeks
# protocol conditions: in vivo, po, 0 mg/kg, 72 h, tissue Plasma, route oral GAVAGE, dose level Control, time 3 day, vehicle 100 % WATER

[
  {
    "compound": "C=CCC1(C(C)CCC)C(=O)NC(=O)NC1=O (stereo not given)",
    "unit label": "G/DL",
    "TOTAL PROTEIN": 6.08
  },
  {
    "compound": "COc1cc2nc(N3CCN(C(=O)C4COc5ccccc5O4)CC3)nc(N)c2cc1OC (stereo not given)",
    "unit label": "G/DL",
    "TOTAL PROTEIN": 5.95
  },
  {
    "compound": "CN(C)CCCN1c2ccccc2Sc2ccc(Cl)cc21",
    "unit label": "G/DL",
    "TOTAL PROTEIN": 5.97
  },
  {
    "compound": "Nc1c2c(nc3ccccc13)CCCC2",
    "unit label": "G/DL",
    "TOTAL PROTEIN": 6.87
  },
  {
    "compound": "N[C@@H](Cc1ccc(O)c(O)c1)C(=O)O",
    "unit label": "G/DL",
    "TOTAL PROTEIN": 5.95
  },
  {
    "compound": "CNNCc1ccc(C(=O)NC(C)C)cc1",
    "unit label": "G/DL",
    "TOTAL PROTEIN": 6.1
  },
  {
    "compound": "Cn1cc[nH]c1=S",
    "unit label": "G/DL",
    "TOTAL PROTEIN": 6.08
  },
  {
    "compound": "C[C@](N)(Cc1ccc(O)c(O)c1)C(=O)O",
    "unit label": "G/DL",
    "TOTAL PROTEIN": 5.77
  },
  {
    "compound": "C[C@H]1c2cccc(O)c2C(=O)C2=C(O)[C@]3(O)C(=O)C(C(N)=O)=C(O)[C@@H](N(C)C)[C@@H]3[C@@H](O)[C@@H]21.O",
    "unit label": "G/DL",
    "TOTAL PROTEIN": 5.95
  },
  {
    "compound": "CC(O)CO (stereo not given)",
    "unit label": "G/DL",
    "TOTAL PROTEIN": 5.8
  },
  {
    "compound": "C[C@H](CS)C(=O)N1CCC[C@H]1C(=O)O",
    "unit label": "G/DL",
    "TOTAL PROTEIN": 5.68
  },
  {
    "compound": "NCCCCCC(=O)O",
    "unit label": "G/DL",
    "TOTAL PROTEIN": 5.8
  },
  {
    "compound": "Clc1cccc(Cl)c1N=C1NCCN1",
    "unit label": "G/DL",
    "TOTAL PROTEIN": 5.87
  },
  {
    "compound": "Cc1onc(-c2ccccc2Cl)c1C(=O)N[C@@H]1C(=O)N2[C@@H]1SC(C)(C)[C@@H]2C(=O)O",
    "unit label": "G/DL",
    "TOTAL PROTEIN": 5.8
  },
  {
    "compound": "c1ccc([C@H]2CN3CCSC3=N2)cc1",
    "unit label": "G/DL",
    "TOTAL PROTEIN": 5.77
  }
]
